Target: Cannabinoid receptor 2 (Homo sapiens, UniProt P34972)
Sequence (P34972 whole entry): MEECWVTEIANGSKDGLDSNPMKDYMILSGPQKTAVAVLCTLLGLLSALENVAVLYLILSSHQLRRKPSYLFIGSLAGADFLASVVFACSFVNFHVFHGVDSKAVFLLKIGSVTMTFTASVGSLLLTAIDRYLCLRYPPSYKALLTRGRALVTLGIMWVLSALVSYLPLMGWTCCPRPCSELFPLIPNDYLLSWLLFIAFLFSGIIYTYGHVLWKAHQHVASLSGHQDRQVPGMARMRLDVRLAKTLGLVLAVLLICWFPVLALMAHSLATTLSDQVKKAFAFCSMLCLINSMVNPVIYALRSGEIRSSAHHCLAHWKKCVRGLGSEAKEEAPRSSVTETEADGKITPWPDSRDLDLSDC
Experiment: Cross screening panel

{"columns": ["compound", "EC50"],
 "data": [
  ["CC(=O)Nc1c(F)cc(C(=O)N[C@H]2CC[C@H](O)CC2)cc1O[C@@H](C)c1ccccc1 [GSK046]", "> 100 µM"]
]}

* * *

Biological target: 5-hydroxytryptamine receptor 1D (Homo sapiens, UniProt P28221)

{"columns": ["smiles-structure", "target-or-system", "Ki"],
 "data": [
  ["CC(=O)Nc1c(F)cc(C(=O)N[C@H]2CC[C@H](O)CC2)cc1O[C@@H](C)c1ccccc1", "5-hydroxytryptamine receptor 1D (Homo sapiens, UniProt P28221)", "3.44 µM"]
]}

* * *

Target: 5-hydroxytryptamine receptor 1B (Homo sapiens, UniProt P28222)
Sequence (P28222 whole entry): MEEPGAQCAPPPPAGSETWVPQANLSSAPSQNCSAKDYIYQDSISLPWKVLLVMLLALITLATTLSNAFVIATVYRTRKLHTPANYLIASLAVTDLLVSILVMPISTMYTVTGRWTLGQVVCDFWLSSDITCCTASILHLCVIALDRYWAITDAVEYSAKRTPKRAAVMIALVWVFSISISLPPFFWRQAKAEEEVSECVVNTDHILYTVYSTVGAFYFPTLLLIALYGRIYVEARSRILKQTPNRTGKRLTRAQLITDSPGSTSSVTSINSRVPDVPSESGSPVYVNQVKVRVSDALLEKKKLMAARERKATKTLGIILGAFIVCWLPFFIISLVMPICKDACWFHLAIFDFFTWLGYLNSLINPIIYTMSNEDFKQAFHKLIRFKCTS
Assay: Cross screening panel
readout-kind: EC50

{"columns": ["smiles-structure", "result"],
 "data": [
  ["CC(=O)Nc1c(F)cc(C(=O)N[C@H]2CC[C@H](O)CC2)cc1O[C@@H](C)c1ccccc1", "> 100 µM"]
]}

* * *

Molecular target: D(1A) dopamine receptor (Homo sapiens)

{"columns": ["compound", "IC50"],
 "data": [
  ["CC(=O)Nc1c(F)cc(C(=O)N[C@H]2CC[C@H](O)CC2)cc1O[C@@H](C)c1ccccc1 [GSK046]", "> 100 µM"]
]}

* * *

Target: UniProt P55201
Test: BRPF1 DiscoverX BROMOscan

{"columns": ["molecule", "target-or-system", "Kd"],
 "data": [
  ["CC(=O)Nc1c(F)cc(C(=O)N[C@H]2CC[C@H](O)CC2)cc1O[C@@H](C)c1ccccc1 [GSK046]", "UniProt P55201", "30 µM"]
]}

* * *

Molecular target: D(2) dopamine receptor (Homo sapiens)
pKi: −log10 of the molar value.
readout-kind: pKi

{"columns": ["smiles-structure", "result"],
 "data": [
  ["CC(=O)Nc1c(F)cc(C(=O)N[C@H]2CC[C@H](O)CC2)cc1O[C@@H](C)c1ccccc1", "< 4.00"]
]}

* * *

Biological target: Bromodomain-containing protein 3 (Homo sapiens, UniProt Q15059)
Sequence (Q15059 whole entry): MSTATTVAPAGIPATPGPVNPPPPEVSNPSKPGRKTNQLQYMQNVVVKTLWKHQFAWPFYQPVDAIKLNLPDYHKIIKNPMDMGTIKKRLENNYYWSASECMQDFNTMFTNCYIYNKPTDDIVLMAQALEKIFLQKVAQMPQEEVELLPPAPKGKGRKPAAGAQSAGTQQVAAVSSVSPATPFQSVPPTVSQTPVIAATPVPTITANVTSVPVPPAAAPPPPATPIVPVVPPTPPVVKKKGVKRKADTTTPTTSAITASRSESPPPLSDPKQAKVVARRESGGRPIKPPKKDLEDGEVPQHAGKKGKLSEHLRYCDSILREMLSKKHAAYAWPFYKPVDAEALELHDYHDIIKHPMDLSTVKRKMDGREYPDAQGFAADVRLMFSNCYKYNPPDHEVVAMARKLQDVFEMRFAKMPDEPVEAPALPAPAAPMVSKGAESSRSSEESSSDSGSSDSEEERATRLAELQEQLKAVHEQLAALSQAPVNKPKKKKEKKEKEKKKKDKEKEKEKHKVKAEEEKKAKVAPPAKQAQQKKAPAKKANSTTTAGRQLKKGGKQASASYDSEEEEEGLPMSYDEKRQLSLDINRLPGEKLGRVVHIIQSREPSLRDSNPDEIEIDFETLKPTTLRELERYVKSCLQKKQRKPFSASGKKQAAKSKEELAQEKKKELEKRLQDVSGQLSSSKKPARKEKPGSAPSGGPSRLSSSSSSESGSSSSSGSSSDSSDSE
Assay: BRD3(1) DiscoverX BROMOscan

{"columns": ["molecule", "target-or-system", "Kd"],
 "data": [
  ["CC(=O)Nc1c(F)cc(C(=O)N[C@H]2CC[C@H](O)CC2)cc1O[C@@H](C)c1ccccc1 [GSK046]", "Bromodomain-containing protein 3 (Homo sapiens, UniProt Q15059)", "2.08 µM"]
]}

* * *

Molecular target: Acetylcholine receptor subunit alpha (Homo sapiens, UniProt P02708)
Test: Cross screening panel
readout-kind: IC50 (µM)

{"columns": ["molecule", "readout-number"],
 "data": [
  ["CC(=O)Nc1c(F)cc(C(=O)N[C@H]2CC[C@H](O)CC2)cc1O[C@@H](C)c1ccccc1 [GSK046]", 25.1]
]}

* * *

Target: Histone acetyltransferase KAT2B (Homo sapiens)
Sequence (Q92831 whole entry): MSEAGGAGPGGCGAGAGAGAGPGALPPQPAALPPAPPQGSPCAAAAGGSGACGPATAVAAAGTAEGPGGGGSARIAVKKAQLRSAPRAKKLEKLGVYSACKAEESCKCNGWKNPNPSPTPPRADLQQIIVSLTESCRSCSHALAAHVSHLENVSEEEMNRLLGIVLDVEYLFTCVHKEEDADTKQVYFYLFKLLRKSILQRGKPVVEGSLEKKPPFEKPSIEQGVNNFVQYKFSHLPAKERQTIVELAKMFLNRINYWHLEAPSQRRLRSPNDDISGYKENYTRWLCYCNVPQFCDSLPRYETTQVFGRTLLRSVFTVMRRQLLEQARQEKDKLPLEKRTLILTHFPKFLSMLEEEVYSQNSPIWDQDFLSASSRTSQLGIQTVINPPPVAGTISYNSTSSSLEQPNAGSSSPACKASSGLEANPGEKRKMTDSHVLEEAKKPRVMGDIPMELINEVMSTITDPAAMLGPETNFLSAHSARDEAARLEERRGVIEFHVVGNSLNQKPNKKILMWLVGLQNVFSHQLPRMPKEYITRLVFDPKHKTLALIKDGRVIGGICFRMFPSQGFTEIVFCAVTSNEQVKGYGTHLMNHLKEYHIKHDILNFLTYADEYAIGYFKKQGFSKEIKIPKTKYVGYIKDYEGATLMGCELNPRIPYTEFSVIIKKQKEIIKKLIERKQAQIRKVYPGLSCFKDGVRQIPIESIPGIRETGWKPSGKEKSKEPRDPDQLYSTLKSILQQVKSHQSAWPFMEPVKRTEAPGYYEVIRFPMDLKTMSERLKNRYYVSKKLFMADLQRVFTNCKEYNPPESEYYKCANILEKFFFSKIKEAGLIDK
Experiment: PCAF DiscoverX BROMOscan
readout-kind: Kd (µM)

{"columns": ["smiles-structure", "target-or-system", "readout-number"],
 "data": [
  ["CC(=O)Nc1c(F)cc(C(=O)N[C@H]2CC[C@H](O)CC2)cc1O[C@@H](C)c1ccccc1", "Histone acetyltransferase KAT2B (Homo sapiens)", 30]
]}

* * *

Target: Bromodomain testis-specific protein (Homo sapiens, UniProt Q58F21)
Assay: BRDT(2) DiscoverX BROMOscan
pKd: −log10 of the molar value.

{"columns": ["molecule", "pKd"],
 "data": [
  ["CC(=O)Nc1c(F)cc(C(=O)N[C@H]2CC[C@H](O)CC2)cc1O[C@@H](C)c1ccccc1 [GSK046]", 7.82]
]}

* * *

Target: Histone acetyltransferase KAT2A (Homo sapiens)
Sequence (Q92830 whole entry): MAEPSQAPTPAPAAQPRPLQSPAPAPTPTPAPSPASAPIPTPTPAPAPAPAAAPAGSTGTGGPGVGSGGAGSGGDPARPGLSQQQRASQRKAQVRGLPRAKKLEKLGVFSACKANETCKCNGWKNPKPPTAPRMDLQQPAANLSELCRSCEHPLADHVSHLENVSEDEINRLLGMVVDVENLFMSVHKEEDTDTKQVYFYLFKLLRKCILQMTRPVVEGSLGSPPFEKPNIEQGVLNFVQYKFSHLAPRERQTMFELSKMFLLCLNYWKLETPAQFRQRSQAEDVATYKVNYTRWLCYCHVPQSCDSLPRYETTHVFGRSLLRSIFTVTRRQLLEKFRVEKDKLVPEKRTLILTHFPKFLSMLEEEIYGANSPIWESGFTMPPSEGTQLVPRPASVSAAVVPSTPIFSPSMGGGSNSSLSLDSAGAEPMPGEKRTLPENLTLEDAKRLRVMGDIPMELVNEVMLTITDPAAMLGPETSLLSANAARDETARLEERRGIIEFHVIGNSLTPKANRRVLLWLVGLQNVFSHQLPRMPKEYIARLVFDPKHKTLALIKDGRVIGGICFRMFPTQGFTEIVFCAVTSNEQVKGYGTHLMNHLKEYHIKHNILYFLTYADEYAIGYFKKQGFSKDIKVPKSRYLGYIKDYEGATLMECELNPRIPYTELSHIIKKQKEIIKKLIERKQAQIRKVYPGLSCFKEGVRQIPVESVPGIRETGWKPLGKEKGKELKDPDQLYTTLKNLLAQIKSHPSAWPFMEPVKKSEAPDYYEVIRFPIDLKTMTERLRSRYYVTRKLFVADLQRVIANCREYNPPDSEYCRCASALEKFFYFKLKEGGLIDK
Experiment: GCN5L2 DiscoverX BROMOscan
pKd: −log10 of the molar value.

{"columns": ["smiles-structure", "pKd"],
 "data": [
  ["CC(=O)Nc1c(F)cc(C(=O)N[C@H]2CC[C@H](O)CC2)cc1O[C@@H](C)c1ccccc1", 4.52]
]}

* * *

Target: Muscarinic acetylcholine receptor M1 (Homo sapiens, UniProt P11229)
Sequence (P11229 whole entry): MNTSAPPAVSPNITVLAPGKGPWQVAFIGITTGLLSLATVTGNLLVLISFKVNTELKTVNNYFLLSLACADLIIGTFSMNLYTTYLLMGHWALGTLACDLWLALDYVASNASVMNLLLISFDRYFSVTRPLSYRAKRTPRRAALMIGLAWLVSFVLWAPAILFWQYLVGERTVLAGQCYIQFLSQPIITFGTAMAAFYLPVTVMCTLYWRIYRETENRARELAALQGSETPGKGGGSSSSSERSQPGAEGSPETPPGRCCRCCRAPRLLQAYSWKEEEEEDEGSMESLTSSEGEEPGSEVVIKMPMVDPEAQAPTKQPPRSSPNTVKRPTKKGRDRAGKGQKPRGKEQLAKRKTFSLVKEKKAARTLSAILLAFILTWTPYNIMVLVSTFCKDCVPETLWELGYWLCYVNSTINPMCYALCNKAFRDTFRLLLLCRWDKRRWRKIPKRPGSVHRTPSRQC
Assay: Cross screening panel

{"columns": ["compound", "EC50"],
 "data": [
  ["CC(=O)Nc1c(F)cc(C(=O)N[C@H]2CC[C@H](O)CC2)cc1O[C@@H](C)c1ccccc1 [GSK046]", "> 50.1 µM"]
]}

* * *

Molecular target: Prostaglandin G/H synthase 2 (Homo sapiens, UniProt P35354)
Sequence (P35354 whole entry): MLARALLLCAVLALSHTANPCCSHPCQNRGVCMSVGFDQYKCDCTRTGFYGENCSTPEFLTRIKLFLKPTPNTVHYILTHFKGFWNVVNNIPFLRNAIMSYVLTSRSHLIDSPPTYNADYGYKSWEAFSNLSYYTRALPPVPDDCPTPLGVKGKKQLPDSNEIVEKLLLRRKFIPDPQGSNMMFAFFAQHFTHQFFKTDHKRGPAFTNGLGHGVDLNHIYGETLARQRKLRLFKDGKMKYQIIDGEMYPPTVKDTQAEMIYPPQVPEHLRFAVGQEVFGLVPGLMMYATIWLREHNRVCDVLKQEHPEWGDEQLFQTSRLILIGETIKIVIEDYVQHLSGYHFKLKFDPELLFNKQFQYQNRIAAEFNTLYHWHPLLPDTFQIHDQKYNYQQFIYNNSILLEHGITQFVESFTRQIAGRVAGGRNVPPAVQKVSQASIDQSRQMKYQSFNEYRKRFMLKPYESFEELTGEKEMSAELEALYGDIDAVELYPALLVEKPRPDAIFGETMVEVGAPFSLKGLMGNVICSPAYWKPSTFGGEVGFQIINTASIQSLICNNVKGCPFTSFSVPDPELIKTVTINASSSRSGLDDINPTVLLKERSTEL
pIC50: −log10 of the molar value.
readout-kind: pIC50

{"columns": ["smiles-structure", "readout-kind", "result"],
 "data": [
  ["CC(=O)Nc1c(F)cc(C(=O)N[C@H]2CC[C@H](O)CC2)cc1O[C@@H](C)c1ccccc1", "pIC50", "< 4.00"]
]}

* * *

Target: Beta-2 adrenergic receptor (Homo sapiens, UniProt P07550)
Sequence (P07550 whole entry): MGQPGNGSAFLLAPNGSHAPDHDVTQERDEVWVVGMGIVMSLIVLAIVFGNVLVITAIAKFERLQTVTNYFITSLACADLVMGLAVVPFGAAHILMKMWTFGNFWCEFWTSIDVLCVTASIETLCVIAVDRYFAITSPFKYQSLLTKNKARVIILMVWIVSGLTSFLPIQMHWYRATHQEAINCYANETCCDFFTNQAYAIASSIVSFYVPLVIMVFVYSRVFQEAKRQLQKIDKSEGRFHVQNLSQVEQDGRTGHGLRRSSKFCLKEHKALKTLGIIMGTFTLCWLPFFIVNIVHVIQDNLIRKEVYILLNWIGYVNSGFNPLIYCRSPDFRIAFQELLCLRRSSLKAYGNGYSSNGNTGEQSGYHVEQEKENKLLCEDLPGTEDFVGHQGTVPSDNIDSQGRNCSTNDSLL
Test: Cross screening panel
readout-kind: EC50

{"columns": ["compound", "result"],
 "data": [
  ["CC(=O)Nc1c(F)cc(C(=O)N[C@H]2CC[C@H](O)CC2)cc1O[C@@H](C)c1ccccc1 [GSK046]", "> 100 µM"]
]}

* * *

Molecular target: Nucleosome-remodeling factor subunit BPTF (Homo sapiens, UniProt Q12830)
Assay: FALZ DiscoverX BROMOscan
readout-kind: Kd (µM)

{"columns": ["smiles-structure", "target-or-system", "readout-kind", "unit-spec", "readout-number"],
 "data": [
  ["CC(=O)Nc1c(F)cc(C(=O)N[C@H]2CC[C@H](O)CC2)cc1O[C@@H](C)c1ccccc1", "Nucleosome-remodeling factor subunit BPTF (Homo sapiens, UniProt Q12830)", "Kd", "µM", 30]
]}

* * *

Molecular target: Protein polybromo-1 (Homo sapiens, UniProt Q86U86)
Test: PBRM1(5) DiscoverX BROMOscan
readout-kind: Kd (µM)

{"columns": ["compound", "target-or-system", "readout-kind", "unit-spec", "readout-number"],
 "data": [
  ["CC(=O)Nc1c(F)cc(C(=O)N[C@H]2CC[C@H](O)CC2)cc1O[C@@H](C)c1ccccc1 [GSK046]", "Protein polybromo-1 (Homo sapiens, UniProt Q86U86)", "Kd", "µM", 30]
]}

* * *

Molecular target: Bromodomain-containing protein 9 (Homo sapiens, UniProt Q9H8M2)
Assay: BRD9 DiscoverX BROMOscan

{"columns": ["smiles-structure", "unit-spec", "Kd"],
 "data": [
  ["CC(=O)Nc1c(F)cc(C(=O)N[C@H]2CC[C@H](O)CC2)cc1O[C@@H](C)c1ccccc1", "µM", 30]
]}

* * *

Biological target: UniProtKB Q07343
pIC50: −log10 of the molar value.

{"columns": ["smiles-structure", "pIC50"],
 "data": [
  ["CC(=O)Nc1c(F)cc(C(=O)N[C@H]2CC[C@H](O)CC2)cc1O[C@@H](C)c1ccccc1", "< 4.00"]
]}

* * *

Target: Acetylcholinesterase (Homo sapiens)
pIC50: −log10 of the molar value.

{"columns": ["smiles-structure", "pIC50"],
 "data": [
  ["CC(=O)Nc1c(F)cc(C(=O)N[C@H]2CC[C@H](O)CC2)cc1O[C@@H](C)c1ccccc1", 5.10]
]}

* * *

Target: Potassium voltage-gated channel subfamily A member 5 (Homo sapiens)
Sequence (P22460 whole entry): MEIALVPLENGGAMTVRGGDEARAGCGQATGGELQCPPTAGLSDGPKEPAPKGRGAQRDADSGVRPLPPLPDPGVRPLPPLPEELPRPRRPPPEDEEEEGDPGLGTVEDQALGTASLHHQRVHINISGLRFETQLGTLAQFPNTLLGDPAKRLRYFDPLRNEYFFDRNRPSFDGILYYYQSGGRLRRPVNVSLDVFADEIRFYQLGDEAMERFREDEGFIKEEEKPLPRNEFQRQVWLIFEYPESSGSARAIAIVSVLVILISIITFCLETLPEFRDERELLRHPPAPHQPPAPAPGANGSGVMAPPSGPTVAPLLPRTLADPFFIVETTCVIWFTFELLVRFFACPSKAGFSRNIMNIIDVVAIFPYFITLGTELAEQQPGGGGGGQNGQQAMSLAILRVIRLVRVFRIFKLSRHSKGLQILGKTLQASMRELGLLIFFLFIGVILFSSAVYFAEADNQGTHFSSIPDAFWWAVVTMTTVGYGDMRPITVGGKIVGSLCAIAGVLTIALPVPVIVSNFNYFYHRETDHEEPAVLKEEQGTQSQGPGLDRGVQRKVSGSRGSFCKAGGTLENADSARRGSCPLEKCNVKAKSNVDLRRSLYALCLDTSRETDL

{"columns": ["compound", "IC50"],
 "data": [
  ["CC(=O)Nc1c(F)cc(C(=O)N[C@H]2CC[C@H](O)CC2)cc1O[C@@H](C)c1ccccc1 [GSK046]", "> 50.1 µM"]
]}

* * *

Molecular target: Histone acetyltransferase p300 (Homo sapiens, UniProt Q09472)
Experiment: EP300 DiscoverX BROMOscan
pKd: −log10 of the molar value.

{"columns": ["smiles-structure", "pKd"],
 "data": [
  ["CC(=O)Nc1c(F)cc(C(=O)N[C@H]2CC[C@H](O)CC2)cc1O[C@@H](C)c1ccccc1", 4.52]
]}
